system: EBNA-1 (Epstein-Barr virus nuclear antigen 1), Human herpesvirus 4; experiment: EBNA-1 DNA-binding inhibitors, primary screen, biochemical, fluorescence polarization (AID 1950); details: at 14.8 µM, stronger effect = higher value
Screen size: about 300,000 compounds; about 1,000 (0.33%) were called active. Shown is part of a subset that was picked to be rich in actives.
measurement_name: inhibition

# inhibition of `CCOc1ccc(-c2cn(S(=O)(=O)c3cccc4nsnc34)nc2N)cc1` = 3.63% (inactive)

Record CCCCNC(=O)C1(O)c2ccccc2NC(=O)N1c1ccc(Cl)cc1 (configuration not stated) , field inhibition: -19.8% (inactive)

The measured inhibition associated with `Cc1ccccc1CCN(CC(=O)NC1CCCCC1)C(=O)c1csnn1` reads 3.08% (inactive)

Field inhibition (entry COc1ccc(NC(=O)C2C3CCC(O3)C2C(=O)O)cc1OC (configuration not stated) ) reads 5.36% (inactive)

The compound listed as `Oc1ccccc1CNc1ncc(Br)cc1Br` shows inhibition equal to -8.83% (inactive)

The compound `Cc1cccc(C(=O)Nc2ccc3c(c2)C(=O)N(CC(C)C)C3=O)c1` showed inhibition equal to -2.99% (inactive)

Lab book: inhibition of `C=CCN(c1ccc(Cl)cc1)S(=O)(=O)c1cccc(C(=O)OCC(=O)N(C)C)c1` noted as 11.1% (inactive)

Form field inhibition, entry Cc1cc(OCC(=O)NCC(O)c2ccccc2)c2c(C)c(C)c(=O)oc2c1 (configuration not stated) : 3.74% (inactive)

Briefly, inhibition measured for `CCCCCCCCCCCCC(NC(C)=O)(C(=O)OCC)C(=O)OCC` : -7.56% (inactive)

response.value for `Cc1ccc(OCCC(=O)OCC(=O)N2c3ccccc3NC(=O)C2(C)C)cc1` (field: inhibition) = -1.98% (inactive)

For reference, reported inhibition for `CCCCNC(=O)CSc1nc2ccc(NC(=O)CSc3nnc(COc4ccccc4C)n3C)cc2s1` stands at -11.7% (inactive)

Quick note, inhibition for Cc1ccc(-n2c(C)cc(/C=C(\C#N)C(=O)NCC3CCCO3)c2C)cc1 (configuration not stated) landed at 7.66% (inactive)

Per the record, `Cc1cccc(C(=O)OCC(=O)Nc2sc3c(c2C#N)CCC3)c1` has inhibition of 3.25% (inactive)

* * *

tested on: EBNA-1 (Epstein-Barr virus nuclear antigen 1), Human herpesvirus 4; test: EBNA-1 DNA-binding inhibitors, primary screen, biochemical, fluorescence polarization (AID 1950); settings: at 14.8 µM
Out of some 300,000 compounds screened, about 1,000 (0.33%) were called active. Rule as the data show it: active = inhibition above about 28%; inactive = the rest. What follows is part of a selection rich in actives, with near analogues and random picks from the rest.
The categories you may choose from are active, inactive

Would you please look over these solved cases?
O=C(CN1CCCCC1)N1c2ccccc2Sc2ccc(C(F)(F)F)cc21 = inactive
O=c1o[nH]c(-c2ccccc2)c1N=Nc1c(F)cccc1Cl = inactive
O=C(NCc1ccccc1)C1=C[C@@H](c2ccccc2)C[C@@H](OCCCCO)O1 = inactive

## Task # fetch the recorded call for `CCOc1ccc(C(=O)NC(=S)Nc2ccc(NC(=O)C(C)C)cc2)cc1[N+](=O)[O-]` here
## Result active

## Task Which outcome was assigned to `COc1cccc(NC(=O)CCNS(=O)(=O)c2ccc3c(c2)oc(=O)n3C)c1` in this test?
## Result inactive

## Task Which outcome did this test record for the molecule CCOc1ccc(OCC)c(NC(=O)C(NS(=O)(=O)c2ccc3c(c2)oc(=O)n3C)C(C)C)c1 (configuration not stated) ?
## Result active

## Task Identify the outcome logged in this assay for the molecule shown: `O=C(NNC(=O)c1cc2c(s1)CCCC2)c1ccccc1`
## Result inactive
